Experiment: Lethal dose in mice (LD50) following i.p. dosing
Type: toxicity, organism-based
Conditions: mouse, in vivo, ip

# compound, LD50
data = [
    ("Oc1nc(-c2ccc(F)cc2)c(CCN2CCN(c3ccccn3)CC2)o1", "> 1000 mg/kg"),
    ("Oc1nc(-c2ccc(F)cc2)c(CCN2CCN(c3ccc(Cl)cc3)CC2)o1", "> 1000 mg/kg"),
    ("Oc1nc(-c2ccc(F)cc2)c(CCN2CCN(c3ccccc3)CC2)o1", "> 2000 mg/kg"),
    ("Oc1nc(-c2ccccc2)c(CCN2CCN(c3ccccc3)CC2)o1", "> 1000 mg/kg"),
    ("Oc1nc(-c2ccc(Cl)cc2)c(CN2CCN(c3ccccc3)CC2)o1", "> 1000 mg/kg"),
]

* * *

compounds and their reported LD50
Assay: Lethal dose in mice (LD50) following i.p. dosing
Type: toxicity, organism-based
Details: mouse, in vivo, ip

# compound, LD50
rows = [
    ("Oc1nc(-c2ccc(F)cc2)c(CCN2CCN(c3cccc(Cl)c3)CC2)o1", "> 1000 mg/kg"),
    ("CSc1ccc(-c2nc(O)oc2CCN2CCN(c3ccccc3)CC2)cc1", "250 mg/kg"),
    ("CNC(=O)n1c(-c2ccc(F)cc2)c(CCN2CCN(c3ccccc3)CC2)oc1=O", "750 mg/kg"),
    ("O=c1oc(CCN2CCN(c3ccccc3)CC2)c(-c2ccc(F)cc2)n1-c1ccccc1", "> 1000 mg/kg"),
    ("COc1ccc(N2CCN(CCc3oc(O)nc3-c3ccc(F)cc3)CC2)cc1", "> 1000 mg/kg"),
    ("Oc1nc(-c2ccc(F)cc2)c(CCN2CCN(c3ccccc3Cl)CC2)o1", "> 1000 mg/kg"),
    ("Oc1nc(-c2ccc(Cl)cc2)c(CCN2CCN(c3ccccc3)CC2)o1", "> 1000 mg/kg"),
    ("Oc1nc(-c2ccc(Cl)cc2)c(CCN2CCN(c3ccccn3)CC2)o1", "375 mg/kg"),
]

* * *

System: Mus musculus
Experiment: Contractile activity in skeletal muscles, after 1 hour of peroral administration in mouse
Assay type: functional
Settings: Muscle tissue, po

# compound, ED50
records = [
    ("COc1ccccc1N1CCN(CCCC(=O)c2ccc(F)cc2)CC1", "20 mg/kg"),
    ("O=c1[nH]c(-c2ccc(F)cc2)c(CCN2CCN(c3cc(Cl)cc(Cl)c3)CC2)o1", "200 mg/kg"),
    ("CN(C)CCCN1c2ccccc2Sc2ccc(Cl)cc21", "36.5 mg/kg"),
]
